All values here come from patent US20240116985A1.

Target: T1, B-cat-Halo (UniProt P35222 1-781)
T1 sequence (looked up): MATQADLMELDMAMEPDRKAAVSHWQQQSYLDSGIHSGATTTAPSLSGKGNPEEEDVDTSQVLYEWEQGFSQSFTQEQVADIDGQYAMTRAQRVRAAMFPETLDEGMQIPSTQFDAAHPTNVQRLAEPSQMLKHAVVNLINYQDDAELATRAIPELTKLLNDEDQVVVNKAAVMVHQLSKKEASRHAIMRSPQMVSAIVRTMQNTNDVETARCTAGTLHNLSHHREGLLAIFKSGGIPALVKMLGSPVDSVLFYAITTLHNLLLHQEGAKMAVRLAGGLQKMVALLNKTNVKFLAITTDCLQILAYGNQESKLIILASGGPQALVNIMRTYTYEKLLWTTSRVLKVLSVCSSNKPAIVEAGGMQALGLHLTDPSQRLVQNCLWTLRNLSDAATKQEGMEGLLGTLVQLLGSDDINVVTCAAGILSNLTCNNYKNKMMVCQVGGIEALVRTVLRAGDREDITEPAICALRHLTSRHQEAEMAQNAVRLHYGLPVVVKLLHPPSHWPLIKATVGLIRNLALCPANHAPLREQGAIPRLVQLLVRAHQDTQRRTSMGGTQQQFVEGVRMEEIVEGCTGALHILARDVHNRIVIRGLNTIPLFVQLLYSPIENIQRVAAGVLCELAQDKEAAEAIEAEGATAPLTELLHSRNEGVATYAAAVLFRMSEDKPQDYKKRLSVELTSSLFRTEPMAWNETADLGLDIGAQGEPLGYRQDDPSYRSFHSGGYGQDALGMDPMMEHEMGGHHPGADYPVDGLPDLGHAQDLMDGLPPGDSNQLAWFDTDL
Test: cell-based or functional assay
Starred links: 1 amine or outer side, 2 acyl side, 3 side chain; linkers in the order of their positions; H or OH if unused. Positions of bridges follow the written chain, without caps; N, C: chain ends. Non-standard residues stand in square brackets, D forms with d. Primed or numbered codes have the meaning given here. PyrS2″ = (S)-3-amino-1-((pent-4-en-1-yloxy)carbonyl)pyrrolidine-3-carboxylic acid (stapling residue), C=CCCCOC(=O)N1CC[C@@](N[*:1])(C(=O)[*:2])C1; B5(4) = 2,2-bis(4-pentenyl)glycine = 2-amino-2-(pent-4-en-1-yl)hept-6-enoic acid (stitching residue), C=CCCCC(CCCC=C)(N[*:1])C(=O)[*:2]; Phe(2-Cl) = N[C@@H](Cc1ccccc1Cl)C(=O)O; Bta = N[C@@H](Cc1csc2ccccc12)C(=O)O; αAllylPro = C=CC[C@@]1(C(=O)O)CCCN1; tBuAla = CC(C)(C)C[C@H](N)C(=O)O; Thr(ol) = C[C@@H](O)[C@H](N)CO
value.kind: NanoBRET Abs IC50 (µM)
Kindly provide the numeric value in µM only, without the unit symbol.

-- ask // lookup NanoBRET Abs IC50 for Ac-[αAllylPro]D[tBuAla][B5(4)]DDAAFT[PyrS2″][Phe(2-Cl)][Bta]S-NHEt (staple 1-4, 4-11) [I-1244]
-- reply 17.7

-- ask # lookup: NanoBRET Abs IC50 of Ac-[αAllylPro]D[tBuAla][B5(4)]DDAAFL[PyrS2″][Phe(2-Cl)][Bta][Thr(ol)] (staple 1-4, 4-11) [I-1249]
-- reply 25.2

-- ask Data request, read-out NanoBRET Abs IC50, for Ac-[αAllylPro]D[tBuAla][B5(4)]DDAAFL[PyrS2″][Phe(2-Cl)][Bta]Q-NHEt (staple 1-4, 4-11) [I-1248]
-- reply 29.7
